B1: library; numbered along this chain (parent)
chain: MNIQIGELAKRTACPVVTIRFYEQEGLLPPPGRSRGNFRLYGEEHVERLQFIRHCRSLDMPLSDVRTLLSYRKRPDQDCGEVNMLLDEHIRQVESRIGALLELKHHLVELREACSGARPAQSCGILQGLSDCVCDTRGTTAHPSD

- Variants of: B1
- EXPERIMENT NOTES: sfGFP reporter fluorescence (15 h) (µM FITC); higher = higher leak
- CONDITION: library round: Round 0; ligand: none
ASSAY READOUT: sfGFP reporter fluorescence
Answers are plain numbers.

Here are 4 variants together with their reported answers.
mutation=N83E assay_readout="sfGFP reporter fluorescence" recorded_number=0.0612
mutation=I125T assay_readout="sfGFP reporter fluorescence" recorded_number=0.0585
mutation=H89A assay_readout="sfGFP reporter fluorescence" recorded_number=0.0599
mutation=E43M assay_readout="sfGFP reporter fluorescence" recorded_number=0.0597

Below: the item to evaluate.
Enquiry: Need sfGFP reporter fluorescence, item `Q92A`
Return: 0.0592
